The reported measurements were obtained from the supplement of paper PMC10567573.

What protein stability index was measured for each of the following?
B1: APBB1IP (parent)
chain: FNYSVGFKDLNESLNALEDQDLDA

Variants of: B1
Assay: protein stability index of a GFP-peptide fusion (GPS, HEK-293T) (PSI 1-6); higher = more stable;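 also: lentivirally expressed fusions sorted by FACS into six bins by GFP to DsRed ratio, PSI derived from sequencing read proportions per bin multiplied by bin number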
Conditions: c terminus: a fixed tail appended

Kindly note the recorded protein stability index for S13E , which is 3.95

Please fill in: protein stability index reported for Y3G = 4.82

Looking up D19G , I see its protein stability index listed as 4.36

Lab note: S4T gave protein stability index of 4.62

A16S has a reported protein stability index of 4.19

Record summary for N15T : reported protein stability index = 4.78

Entry L22W — recorded protein stability index = 3.86

Recorded protein stability index (variant F7E ): 5.24

Just so you know, measured protein stability index for Q20W came out at 3.7

The reported protein stability index of the variant S13N was 4.17

Measured protein stability index, K8N : 4.74

The variant listed as V5N has a reported protein stability index of 4.36

Measured protein stability index of L22E : 5.45

For this variant ( E12T ), measured protein stability index is 4.24

Lab note: measured protein stability index of N11I was 3.31

Looking up S4C , I found its protein stability index recorded as 4.31

Memo: K8P , reported protein stability index: 4.79

Reported protein stability index of N11F : 3.62

Value of measured protein stability index for the entry D23V : 3.18

Measured protein stability index, F1C : 4.79

For reference, reported protein stability index for L17C stands at 4.48

response.value for G6R (field: protein stability index) = 3.9
